# Test system: primary human fibroblasts derived from IPF patients (LL29 cells), α-smooth muscle actin
# PROTOCOL_DESCRIPTION: Inhibition of fibrotic process: αSMA in TGF-β1 treated LL29 fibroblasts
# Format: cell-based
# STATED_CONDITIONS: Homo sapiens, Fibroblast, 96 h; LL29 cells, TGF-β1 20 ng/mL, 4 days, % cells positive for αSMA
# Procedure: Representative compounds were screened using primary human fibroblasts (derived from IPF patients) treated with TGF-β1 to determine their ability to inhibit the fibrotic process. LL29 cells were plated at 1,500 cells/well in 70 μL/well F12 medium supplemented with 1% Fetal Bovine Serum. […] Wells treated with TGF-β1 and containing DMSO were used as positive control, and cells with only DMSO were negative control. […]
# EC50 per entry
Answer format: numeric, nM implied, no suffix.

CN(C)C1CN(c2ncc(C(=O)Nc3cc4cc(-c5cnn(C)c5)ccc4cn3)s2)C1 [Compound 24]: 2750

**Query** # value lookup — system primary human fibroblasts derived from IPF patients (LL29 cells), α-smooth muscle actin, readout EC50, item CC(C)c1nc(C(=O)Nc2cc3cc(-c4cncn4C)ccc3cn2)co1 [Compound 54]
**Result** 3210

**Query** Query the reported EC50 for primary human fibroblasts derived from IPF patients (LL29 cells), α-smooth muscle actin; item: Cn1cc(-c2ccc3cnc(NC(=O)c4cn(C5CCN(CCF)CC5)nn4)cc3c2)nn1 [Compound 34]
**Result** 642

**Query** For primary human fibroblasts derived from IPF patients (LL29 cells), α-smooth muscle actin, provide EC50 of Cn1cc(-c2ccc3cnc(NC(=O)c4coc(C5CCNCC5)n4)cc3c2)nn1 [Compound 36] please.
**Result** 596

* * *

# EXPERIMENTAL_SYSTEM: recombinant GSK3β kinase (Homo sapiens (Human))
# PROTOCOL_DESCRIPTION: GSK3β kinase assay (Ser/Thr 09 peptide Z-lyte, FRET)
# Format: biochemical
# STATED_CONDITIONS: GSK3β kinase, 46 μM ATP, one hour; method calls values IC50
Cut-off 2000 nM on EC50: below means Satisfied, at or above means Not satisfied.

Cc1nnc(-c2ccc3cnc(NC(=O)c4coc(C5CCN(C)CC5)n4)cc3c2)s1: Not satisfied
Cn1cc(C(=O)Nc2cc3cc(-c4cncn4C)ccc3cn2)cn1: Satisfied
Cn1cc(-c2ccc3cnc(NC(=O)c4cnn(C5CCN(CCF)CC5)c4)cc3c2)cn1: Satisfied

**Query** Hello, is EC50 of the following molecule strictly smaller than 2000 nM? CC(C)c1nc(C(=O)Nc2cc3cc(-c4cncn4C)ccc3cn2)co1
**Result** Satisfied

**Query** Threshold test, EC50 < 2000 nM: Cc1nnc(-c2ccc3cnc(NC(=O)c4cnn(C5CCN(C)CC5)c4)cc3c2)s1
**Result** Satisfied

* * *

# EXPERIMENTAL_SYSTEM: recombinant DYRK1A kinase (Homo sapiens (Human))
# PROTOCOL_DESCRIPTION: DYRK1A kinase assay (Ser/Thr 18 peptide Z-lyte, FRET)
# STATED_CONDITIONS: DYRK1A kinase, 30 μM ATP, one hour; method calls values IC50
pEC50: −log10 of the molar value.
Could you label it true if measured pEC50 is 8 or higher, and false otherwise?

CC(C)N1CCC(n2cc(C(=O)Nc3cc4cc(-c5cnn(C)c5)ccc4cn3)cn2)CC1: true
CC(C)n1cc(C(=O)Nc2cc3cc(-c4cnn(C5CCN(C)CC5)c4)ccc3cn2)cn1: false
Cn1cc(C(=O)Nc2cc3cc(-c4cncn4C)ccc3cn2)cn1: true
Cc1ncc(-c2ccc3cnc(NC(=O)Cn4ccnc4)cc3c2)o1: true

**Query** Is the recorded value of pEC50 equal to or greater than 8 for this compound? Cn1cc(-c2ccc3cnc(NC(=O)c4csc(C5CCNCC5)n4)cc3c2)cn1
**Result** false

**Query** Determine whether this compound has pEC50 no lower than 8: CC(C)n1cnc(C(=O)Nc2cc3cc(-c4cncn4C)ccc3cn2)c1
**Result** true

**Query** Form field: pEC50 at least 8? Entry: Cn1cc(-c2ccc3cnc(NC(=O)c4cnn(C5CCNCC5)c4)cc3c2)nn1
**Result** true

* * *

# Tested on: primary human fibroblasts derived from IPF patients (LL29 cells), α-smooth muscle actin
# PROTOCOL_DESCRIPTION: Inhibition of fibrotic process: αSMA in TGF-β1 treated LL29 fibroblasts
# Assay type: cell-based
# STATED_CONDITIONS: Homo sapiens, Fibroblast, 96 h; LL29 cells, TGF-β1 20 ng/mL, 4 days, % cells positive for αSMA
pEC50 by entry:
Recall that pEC50 is obtained by taking minus log10 of the concentration measured in molar.

CN(C)C1CN(c2nc(C(=O)Nc3cc4cc(-c5cnn(C)c5)ccc4cn3)co2)C1 [Compound 18]: 6.32
Cc1ncc(-c2ccc3cnc(NC(=O)c4cnn(C)c4)cc3c2)n1C [Compound 60]: 6.11
[2H]C([2H])([2H])n1cc(-c2ccc3cnc(NC(=O)c4coc(C5CCNCC5)n4)cc3c2)cn1 [Compound 16]: 6.51
CN1CCN(c2nc(C(=O)Nc3cc4cc(-c5cnn(C)c5)ccc4cn3)co2)CC1 [Compound 23]: 6.49
Cn1cncc1-c1ccc2cnc(NC(=O)c3cnn(C4CC4)c3)cc2c1 [Compound 44]: 6.94

Moving on to the next compound.
**Query** Give the measured pEC50 of Cc1nnc(C(=O)Nc2cc3cc(-c4cncn4C)ccc3cn2)o1 [Compound 58] .
**Result** 5.89

* * *

# EXPERIMENTAL_SYSTEM: recombinant GSK3β kinase (Homo sapiens (Human), UniProt P49841)
# Sequence (P49841 whole entry): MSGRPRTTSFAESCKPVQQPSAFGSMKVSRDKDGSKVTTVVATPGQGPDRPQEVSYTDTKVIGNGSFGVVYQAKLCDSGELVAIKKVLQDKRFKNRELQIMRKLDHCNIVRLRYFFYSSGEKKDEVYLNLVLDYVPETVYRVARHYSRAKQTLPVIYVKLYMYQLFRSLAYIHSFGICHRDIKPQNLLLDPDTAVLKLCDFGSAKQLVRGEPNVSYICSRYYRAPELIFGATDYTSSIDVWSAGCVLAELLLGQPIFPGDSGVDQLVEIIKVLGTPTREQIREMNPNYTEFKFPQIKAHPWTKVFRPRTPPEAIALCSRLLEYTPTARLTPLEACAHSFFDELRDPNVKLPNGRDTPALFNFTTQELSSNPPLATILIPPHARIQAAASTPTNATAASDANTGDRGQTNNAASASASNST
# PROTOCOL_DESCRIPTION: GSK3β kinase assay (Ser/Thr 09 peptide Z-lyte, FRET)
# Format: biochemical
# STATED_CONDITIONS: GSK3β kinase, 46 μM ATP, one hour; method calls values IC50
Quick list: EC50 per entry.
Reply with just the number (in µM).

Some entries whose results are on file:
Cc1ncc(C(=O)Nc2cc3cc(-c4cnc(C)n4C)ccc3cn2)s1: 0.45
Cc1ncc(C(=O)Nc2cc3cc(-c4cncn4C)ccc3cn2)n1C: 0.641
CC(C)n1cc(C(=O)Nc2cc3cc(-c4cnn(C5CCN(C)CC5)c4)ccc3cn2)cn1: 9.99
Cn1cc(CC(=O)Nc2cc3cc(-c4cncn4C)ccc3cn2)cn1: 0.029
CN(C)C1CN(c2ncc(C(=O)Nc3cc4cc(-c5cnn(C)c5)ccc4cn3)s2)C1: 1.76

Let us move to another entry and its EC50.
**Query** Field request: EC50 | item: CC(C)N1CCC(n2cc(C(=O)Nc3cc4cc(-c5cn(C)nn5)ccc4cn3)nn2)CC1
**Result** 0.295

* * *

EC50 values, listed per item
# EXPERIMENTAL_SYSTEM: recombinant DYRK1A kinase (Homo sapiens (Human))
# PROTOCOL_DESCRIPTION: DYRK1A kinase assay (Ser/Thr 18 peptide Z-lyte, FRET)
# STATED_CONDITIONS: DYRK1A kinase, 30 μM ATP, one hour; method calls values IC50
Provide the reading as a plain figure in nM.

These recorded examples may help you get a feel for the data.
CC(C)N1CCC(c2nc(C(=O)Nc3cc4cc(-c5cnn(C)c5)ccc4cn3)co2)CC1: 16
Cc1nnc(C(=O)Nc2cc3cc(-c4cncn4C)ccc3cn2)s1: 4
CC(C)N1CCC(c2nc(C(=O)Nc3cc4cc(-c5cn(C)nn5)ccc4cn3)co2)CC1: 180

Below: the item to evaluate.
**Query** Give recorded EC50 with recombinant DYRK1A kinase (Homo sapiens (Human)) for the following compound: Cn1cc(-c2ccc3cnc(NC(=O)c4cn(C5CCN(CCF)CC5)nn4)cc3c2)nn1
**Result** 6

* * *

Consider the following compounds and their measured pEC50 readings.
# EXPERIMENTAL_SYSTEM: recombinant GSK3β kinase (Homo sapiens (Human), UniProt P49841)
# PROTOCOL_DESCRIPTION: GSK3β kinase assay (Ser/Thr 09 peptide Z-lyte, FRET)
# Assay type: biochemical
# STATED_CONDITIONS: GSK3β kinase, 46 μM ATP, one hour; method calls values IC50
FYI, pEC50 means -log10 of a concentration in mol per litre.

These recorded examples may help you get a feel for the data.
Cc1nnc(-c2ccc3cnc(NC(=O)c4cnn(C5CCN(C(C)C)CC5)c4)cc3c2)s1: 6.41
Cc1nnc(-c2ccc3cnc(NC(=O)c4cn(C5CCN(C)CC5)nn4)cc3c2)s1: 5.63
CC(C)Cn1cc(C(=O)Nc2cc3cc(-c4cncn4C)ccc3cn2)cn1: 5.92
CC(C)N1CCC(n2cc(C(=O)Nc3cc4cc(-c5cnn(C)c5)ccc4cn3)cn2)CC1: 6.11
CC(C)N1CCC(c2nc(C(=O)Nc3cc4cc(-c5cnn(C)c5)ccc4cn3)co2)CC1: 5.59
CC(C)N1CCC(n2cc(C(=O)Nc3cc4cc(-c5cn(C)nn5)ccc4cn3)cn2)CC1: 6.46
CN1CCN(c2nc(C(=O)Nc3cc4cc(-c5cnn(C)c5)ccc4cn3)cs2)CC1: 5.66

In the following, a different compound is considered.
**Query** Provide value of pEC50 for this record tested with recombinant GSK3β kinase (Homo sapiens (Human), UniProt P49841): CC(C)OC(=O)N1CCC(n2cc(C(=O)Nc3cc4cc(-c5cnn(C)c5)ccc4cn3)cn2)CC1
**Result** 5.38
